Taken from paper PMC5816602.

assayed-target: hDHFR (Homo sapiens)
Construct: purchased Sigma CS0340
protocol-text: In vitro DHFR inhibition assay (DHFR assay kit, absorbance at 340 nm)
Type: biochemical
pIC50: −log10 of the molar value. Residues, ends and D or L forms follow the SMILES beside them.
Recorded pIC50 values for a group of compounds are listed next.

Use the examples below as a reference point.
compound	measured-result
CSCC[C@H](NC(=O)[C@H](Cc1ccccc1)NC(=O)[C@@H](N)Cc1ccc(O)cc1)C(=O)N[C@@H](CC(C)C)C(=O)NCC(=O)O [Peptide 7, Tyr-Phe-Met-Leu-Gly] (H-YFMLG-OH)	< 4.00
CSCC[C@H](NC(=O)[C@H](Cc1ccc(O)cc1)NC(=O)[C@@H](N)Cc1ccccc1)C(=O)NCC(=O)N[C@@H](CC(C)C)C(=O)O [Peptide 9, Phe-Tyr-Met-Gly-Leu] (H-FYMGL-OH)	< 4.10

Record CSCC[C@H](NC(=O)[C@H](Cc1ccccc1)NC(=O)[C@H](CO)NC(=O)[C@@H](N)Cc1ccc(O)cc1)C(=O)N[C@@H](CC(C)C)C(=O)O [Peptide 11, Tyr-Ser-Phe-Met-Leu] (H-YSFML-OH) . Reported pIC50: 7.10

Record CSCC[C@H](NC(=O)[C@@H](N)Cc1ccc(O)cc1)C(=O)N[C@@H](Cc1ccccc1)C(=O)N[C@@H](CO)C(=O)N[C@@H](CC(C)C)C(=O)O [Peptide 12, Tyr-Met-Phe-Ser-Leu] (H-YMFSL-OH) . Reported pIC50: < 4.05

Record CSCC[C@H](NC(=O)[C@H](Cc1ccccc1)NC(=O)[C@@H](N)Cc1ccc(O)cc1)C(=O)N[C@@H](CC(C)C)C(=O)O [Peptide 1, Tyr-Phe-Met-Leu] (H-YFML-OH; N-terminus assumed) . Reported pIC50: < 4.00

Record CSCC[C@H](NC(=O)[C@@H](N)Cc1ccc(O)cc1)C(=O)N[C@@H](CO)C(=O)N[C@@H](CC(C)C)C(=O)O [Peptide 5, Tyr-Met-Ser-Leu] (H-YMSL-OH; N-terminus assumed) . Reported pIC50: < 4.00

* * *

assayed-target: hDHFR (Homo sapiens, UniProt P00374)
Construct: purchased Sigma CS0340
Sequence (P00374 whole entry): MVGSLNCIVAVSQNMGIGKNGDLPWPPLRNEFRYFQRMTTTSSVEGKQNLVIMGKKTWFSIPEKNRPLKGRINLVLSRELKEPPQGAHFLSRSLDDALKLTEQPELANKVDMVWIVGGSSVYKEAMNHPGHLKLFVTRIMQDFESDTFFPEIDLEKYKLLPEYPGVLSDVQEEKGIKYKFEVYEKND
protocol-text: In vitro DHFR inhibition assay (DHFR assay kit, absorbance at 340 nm)
Type: biochemical
measurement-conditions: six concentrations 10^−4 to 10^−9 M, assay buffer pH 7.5; read-out: IC50 against hDHFR
Residues, ends and D or L forms follow the SMILES beside them.
assay-readout: IC50

Use the examples below as a reference point.
compound	IC50
CSCC[C@H](N)C(=O)N[C@@H](Cc1ccccc1)C(=O)N[C@@H](Cc1ccc(O)cc1)C(=O)NCC(=O)O [Peptide 4, Met-Phe-Tyr-Gly] (H-MFYG-OH; N-terminus assumed)	> 90 µM
CSCC[C@H](N)C(=O)N[C@@H](Cc1ccccc1)C(=O)N[C@@H](Cc1ccc(O)cc1)C(=O)NCC(=O)N[C@@H](CC(C)C)C(=O)O [Peptide 10, Met-Phe-Tyr-Gly-Leu] (H-MFYGL-OH)	> 100 µM

Shift focus to the following entry.
Record CSCC[C@H](NC(=O)[C@@H](N)Cc1ccccc1)C(=O)N[C@@H](Cc1ccc(O)cc1)C(=O)N[C@@H](CC(C)C)C(=O)NCC(=O)O [Peptide 8, Phe-Met-Tyr-Leu-Gly] (H-FMYLG-OH) . Reported IC50: > 100 µM
